Biological target: T1, cynomolgus monkey serum albumin (cynomolgus monkey, UniProt A2V9Z4 25-608)
T1 construct: Bought protein, immobilized on a CM5 chip by amine coupling; also called Cyno SA
Experiment: SPR (Biacore 8K), albumin immobilized on CM5 chip, 25 C, 1:1 kinetic fit
Experimental: The immobilization of the serum albumin to a Series S Sensor Chip CM5 surface is performed according to the manufacturer's instructions (Amine Coupling Kit BR-1000-50). Briefly, carboxyl groups on the sensor chip surfaces (flow cell 1 and 2) are activated by injecting 70 μL of a mixture containing 75 mg/mL EDC and 11.5 mg/mL NHS at 10 μL/min. […]

>  <binder>
RLN Analog 10 (other, Single-chain fusion: RLN2 B chain (desB1) - L2 - RLN2 A chain - (PGPQ)8 L1 - VHH (C-terminal)) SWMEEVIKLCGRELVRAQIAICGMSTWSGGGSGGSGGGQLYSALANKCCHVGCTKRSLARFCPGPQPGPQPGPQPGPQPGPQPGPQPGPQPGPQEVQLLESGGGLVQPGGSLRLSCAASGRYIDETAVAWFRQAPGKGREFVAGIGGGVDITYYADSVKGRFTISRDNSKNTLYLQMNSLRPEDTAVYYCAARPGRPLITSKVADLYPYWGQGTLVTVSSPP

>  <koff [s⁻¹]>
0.00077

$$$$
>  <binder>
RLN Analog 12 (other, Single-chain fusion: VHH - (G4Q)5 L1 - RLN2 B chain (desB1) - L2 of thirteen residues - RLN2 A chain (desA1-4)) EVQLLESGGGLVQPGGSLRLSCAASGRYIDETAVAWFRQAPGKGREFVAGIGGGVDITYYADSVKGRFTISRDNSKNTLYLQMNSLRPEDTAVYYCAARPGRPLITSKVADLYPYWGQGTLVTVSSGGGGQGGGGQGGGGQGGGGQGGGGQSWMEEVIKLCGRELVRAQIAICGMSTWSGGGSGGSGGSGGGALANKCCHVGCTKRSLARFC

>  <koff [s⁻¹]>
0.0007

$$$$
>  <binder>
RLN Analog 13 (other, Single-chain fusion: VHH - (G4Q)5 L1 - RLN2 A chain (desA1-4) - L2 - RLN2 B chain (desB1)) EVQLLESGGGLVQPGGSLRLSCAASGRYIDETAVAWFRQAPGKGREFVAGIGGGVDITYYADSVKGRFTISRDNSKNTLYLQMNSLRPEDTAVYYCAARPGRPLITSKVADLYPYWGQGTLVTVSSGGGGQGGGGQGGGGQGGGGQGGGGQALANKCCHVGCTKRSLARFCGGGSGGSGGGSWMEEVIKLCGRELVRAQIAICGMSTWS

>  <koff [s⁻¹]>
0.0007

$$$$
